From: ChEMBL document CHEMBL1141521

# Study Target: UniProtKB Q8IL11
# Sequence (Q8IL11 whole entry): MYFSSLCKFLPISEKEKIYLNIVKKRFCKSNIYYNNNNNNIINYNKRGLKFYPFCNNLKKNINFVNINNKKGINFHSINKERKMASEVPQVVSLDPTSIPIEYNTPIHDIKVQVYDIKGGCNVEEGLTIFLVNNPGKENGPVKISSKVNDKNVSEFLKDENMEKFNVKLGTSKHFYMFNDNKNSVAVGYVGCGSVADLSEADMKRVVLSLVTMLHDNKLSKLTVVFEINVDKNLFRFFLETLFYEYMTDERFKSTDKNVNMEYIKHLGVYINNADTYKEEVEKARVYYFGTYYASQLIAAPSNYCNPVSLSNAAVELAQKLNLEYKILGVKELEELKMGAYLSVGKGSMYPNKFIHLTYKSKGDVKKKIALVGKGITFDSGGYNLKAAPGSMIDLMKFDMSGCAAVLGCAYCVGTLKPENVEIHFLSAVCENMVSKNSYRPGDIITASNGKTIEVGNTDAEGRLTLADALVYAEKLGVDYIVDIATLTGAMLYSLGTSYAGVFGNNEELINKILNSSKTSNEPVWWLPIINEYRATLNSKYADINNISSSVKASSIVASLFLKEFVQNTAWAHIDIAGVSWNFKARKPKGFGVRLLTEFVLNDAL
# Test Name: Inhibition of Plasmodium falciparum recombinant leucine aminopeptidase
Measurement Label: Ki (µM)

> print(dat)
                                   molecule  measurement.label  unit  reading
1  NC(CCc1ccccc1)P(=O)(O)CC(Cc1ccccc1)C(=O)O (stereo unspecified)                 Ki    µM   0.0132
